molecular target: UP1(R75E/R88A) (UniProt P09651 1-196, R75E;R88A); assay: ITC; N=1.08; ITC: 20 mM Na phosphate pH 6.5, 100 mM NaCl, no DTT, 25 C; EMSA: 100 mM KCl, 20% glycerol, 0.2 mM EDTA, 100 mM Tris pH 8.0, 0.5 mM DTT, 0.5 mM ATP, 20 mM creatine phosphate, 3.2 mM MgCl2, 4 C; footprint: 12 mM Tris-HCl pH 7.5, 48 mM NaCl, 1.2 mM MgCl2, 37 C; details: protein: recombinant; tags: His tag removed by TEV; single strand
Sequence (P09651 1-196 R75E/R88A): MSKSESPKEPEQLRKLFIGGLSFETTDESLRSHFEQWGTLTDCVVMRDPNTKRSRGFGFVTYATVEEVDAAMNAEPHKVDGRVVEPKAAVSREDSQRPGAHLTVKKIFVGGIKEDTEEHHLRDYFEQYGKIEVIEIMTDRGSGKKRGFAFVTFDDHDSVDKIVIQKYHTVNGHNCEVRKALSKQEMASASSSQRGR
QUANTITY: Kd (nM)
Quick reminder: number only, in nM, skip the unit.

Fill in the blank: the reported Kd of AGUAGAUUAGCA (ssRNA) [12-mer] is ____.
19
